The reported measurements were obtained from patent US11970493B2.

Molecular target: hATX/ENPP2 (Homo sapiens)
Test: hATX/ENPP2 biochemical assay using 16:0-LPC as substrate (Amplex Red/choline oxidase/HRP fluorescence)
Conditions: hENPP2 2.5 nM, LPC (16:0) substrate
pIC50: −log10 of the molar value.

Compound: CCc1nc2ccc(-c3ccc(N4CCC(C(=O)N5CCOCC5)CC4)nc3)cn2c1N(C)c1nc(-c2ccc(F)cc2)c(C#N)s1 [Compound 126]
pIC50: ≥ 7.70
//
Compound: CCc1nc2ccc(-c3ccc(N4CC(NC5(CO)CC5)C4)nc3)cn2c1N(C)c1nc(-c2ccc(F)cc2)c(C#N)s1 [Compound 109]
pIC50: 6.70 to 7.70
//
Compound: CCc1nc2ccc(-c3ccc(N4CCC(C(=O)N5CCC(O)CC5)CC4)nc3)cn2c1N(C)c1nc(-c2ccc(F)cc2)c(C#N)s1 [Compound 119]
pIC50: ≥ 7.70
//
Compound: CCc1nc2ccc(-c3cnc(N4CC(NC(=O)[C@H]5C[C@@H](O)CN5)C4)nc3)cn2c1N(C)c1nc(-c2ccc(F)cc2)c(C#N)s1 [Compound 25]
pIC50: 6.70 to 7.70
//
Compound: CCc1nc2ccc(-c3cnc(N4CC(N)C4)nc3)cn2c1N(C)c1nc(-c2ccc(F)cc2)c(C#N)s1 [Compound 3]
pIC50: 6.70 to 7.70
//
Compound: CCc1nc2ccc(-c3cnc(CC(=O)N4CC[C@H](O)C4)nc3)cn2c1N(C)c1nc(-c2ccc(F)cc2)c(C#N)s1 [Compound 55]
pIC50: 6.70 to 7.70
